- targetDesc: bovine serum albumin (BSA) (Bos taurus)
- Construct: purchased Sigma Aldrich
- Sequence (P02769 25-607): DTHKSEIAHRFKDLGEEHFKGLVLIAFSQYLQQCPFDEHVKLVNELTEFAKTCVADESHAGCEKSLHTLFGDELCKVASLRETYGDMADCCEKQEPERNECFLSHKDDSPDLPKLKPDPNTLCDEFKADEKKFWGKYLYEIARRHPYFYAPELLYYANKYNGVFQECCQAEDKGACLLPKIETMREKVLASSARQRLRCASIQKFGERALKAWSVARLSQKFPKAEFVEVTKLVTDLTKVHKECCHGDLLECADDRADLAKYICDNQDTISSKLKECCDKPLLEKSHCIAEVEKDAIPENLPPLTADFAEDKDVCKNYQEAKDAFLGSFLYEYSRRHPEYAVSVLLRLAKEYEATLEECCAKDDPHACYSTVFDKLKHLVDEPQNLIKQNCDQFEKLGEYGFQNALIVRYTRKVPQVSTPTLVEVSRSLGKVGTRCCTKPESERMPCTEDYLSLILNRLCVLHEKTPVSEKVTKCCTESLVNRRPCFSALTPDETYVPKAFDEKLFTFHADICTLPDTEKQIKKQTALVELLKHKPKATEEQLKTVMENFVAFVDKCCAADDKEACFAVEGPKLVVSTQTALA
- protocolDescription: NP TLC on plates impregnated with bovine serum albumin
- Format: binding
- conditionParameters: Table S3, NP plate impregnated with 2 mg/mL BSA; pH 7.4 mobile phase
recordedEndpoint: NP (Rf, BSA-impregnated NP plate)
Write the number on its own, no unit after it.

# compound CN1CCN(C(=O)OC2c3nccnc3C(=O)N2c2ccc(Cl)cn2)CC1 (stereo not drawn) ; its NP (Rf, BSA-impregnated NP plate) = 0.96

Sure, the documented NP (Rf, BSA-impregnated NP plate) for O=C1CN=C(c2ccccn2)c2cc(Br)ccc2N1 is 0.90

The recorded NP (Rf, BSA-impregnated NP plate) for CCN(CC)C(=O)Nc1ccc(OCC(O)CNC(C)(C)C)c(C(C)=O)c1 (stereo not drawn) is 0.46

Form: compound = C[C@]12CC[C@@H]3c4ccc(O)cc4CC[C@H]3[C@@H]1CCC2=O ; NP (Rf, BSA-impregnated NP plate) = 0.99

For reference, reported NP (Rf, BSA-impregnated NP plate) for CN(C)CCc1c[nH]c2ccc(C[C@H]3COC(=O)N3)cc12 stands at 0.29

According to the records, this compound COc1ccccc1OCCNCC(O)COc1cccc2[nH]c3ccccc3c12 (stereo not drawn) displays NP (Rf, BSA-impregnated NP plate) of 0.9

# compound CN1CCN(C2=Nc3cc(Cl)ccc3Nc3ccccc32)CC1 ; its NP (Rf, BSA-impregnated NP plate) = 0.46

Consider CN1CCN=C(c2ccccc2)c2cc(Cl)ccc21 . Its measured NP (Rf, BSA-impregnated NP plate) is 0.94

Reported NP (Rf, BSA-impregnated NP plate) of OCCN1CCN(CC/C=C2/c3ccccc3Sc3ccc(Cl)cc32)CC1 : 0.47
